For each entry below, report its T/C value.
# Tested on: L1210 leukemia ip in BDF1 mice, survival T/C
# testDescription: NCI In Vivo Anticancer Drug Screen. Data for tumor model L1210 Leukemia (intraperitoneal) in B6D2F1 (BDF1) mice
# runParameters: endpoint: mean survival time; dose: 12.5 mg/kg/injection; schedule: Q04DX003 (ip); vehicle: saline with Tween-80; higher = longer survival
# Description: The antitumor activity of compounds was measured in mice bearing transplantable tumors. Survival or tumor size were measured and the results are expressed as the measurement made in the treated group (T) divided by the measurement made in the vehicle treated control group (C). The tumor model used in this assay is L1210 Leukemia (intraperitoneal) in B6D2F1 (BDF1) mice
Inconclusive results and toxic doses are left out.

Prompt: GET /values?readout=T/C&item= `COc1cccc(/C=C/[N+](=O)[O-])c1OCc1ccccc1`
Response: 117 % of control

Prompt: GET /values?readout=T/C&item= `CCN(CC)c1cc[c]([Hg][O]C(C)=O)cc1`
Response: 93 % of control

Prompt: GET /values?readout=T/C&item= `CCCSP(C(C)C)C(C)C`
Response: 94 % of control

Prompt: GET /values?readout=T/C&item= `CCC1(CC)N=C2OCCN2C1=O`
Response: 97 % of control

Prompt: GET /values?readout=T/C&item= `Cc1ccc(NC(=O)c2cccc(C(=O)Nc3ccc(C)cc3C)c2)c(C)c1`
Response: 98 % of control

From: PubChem BioAssay AID248
